assay-target: proMMP9(20-445;ΔFnII) (SEQ ID NO:6) (Homo sapiens, UniProt P14780, DEL216-390)
Construct: start methionine (N)
Sequence (P14780 with tags, fused parts or gaps DEL216-390): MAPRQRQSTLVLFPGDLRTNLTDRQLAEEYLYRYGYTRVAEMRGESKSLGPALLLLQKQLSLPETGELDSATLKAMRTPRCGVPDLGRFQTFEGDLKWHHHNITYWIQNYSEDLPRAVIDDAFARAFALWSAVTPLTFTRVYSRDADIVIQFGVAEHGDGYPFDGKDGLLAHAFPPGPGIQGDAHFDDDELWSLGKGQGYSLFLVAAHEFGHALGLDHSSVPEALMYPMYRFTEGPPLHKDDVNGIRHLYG
assay-overview: ThermoFluor binding assay with proMMP9(20-445;ΔFnII)
pKd: −log10 of the molar value.
measurement-label: pKd

A = Cc1[nH]c2c(ccc3sc(Nc4cc(C(N)=O)ccc4OC(C)C)nc32)c1C [Example 45]
B = CC(C)Oc1ccc(C(N)=O)cc1Nc1nc2c(ccc3ccncc32)s1 [Example 89]
C = COc1ccccc1Nc1nc2c(ccc3c2cnn3C)s1 [Example 94]
D = Cn1cnc2ccc3sc(Nc4cc(S(N)(=O)=O)ccc4OC(F)(F)F)nc3c21 [Example 128]
E = CCn1c(C)nc2ccc3sc(Nc4cc(S(C)(=O)=O)ccc4OC)nc3c21 [Example 133]
## Task Sequence the entries by pKd, beginning with the highest number. Your answer should be the labels, listed in the requested order.
## Result A, E, B, D, C
(A: 6.11, E: 5.89, B: 5.51, D: 5.31, C: 4.82)
